Each entry below carries its recorded Bliss excess.
- Tested on: ML-2 (Acute Myeloid Leukemia);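 also: after 72 h of two-drug dosing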
- experimental-protocol: Bliss excess, mean over the matrix (fraction); higher = more synergy
# answer = number (no unit)

In the examples that follow, each entry is paired with its recorded Bliss excess.
molecule: NC1(C(=O)N[C@@H](CCO)c2ccc(Cl)cc2)CCN(c2ncnc3[nH]ccc23)CC1 [Capivasertib] + CCN(CCO)CCCOc1ccc2c(Nc3cc(CC(=O)Nc4cccc(F)c4)[nH]n3)ncnc2c1 [AZD2811] (first compound max 10 µM, 7x7, partner max 1 µM)
Bliss excess: -0.0094
//
molecule: CC1(C)CCC(CN2CCN(c3ccc(C(=O)NS(=O)(=O)c4ccc(NCC5CCOCC5)c([N+](=O)[O-])c4)c(Oc4cnc5[nH]ccc5c4)c3)CC2)=C(c2ccc(Cl)cc2)C1 [Venetoclax] + C1CN(CCC1(C(=O)N[C@@H](CCO)C2=CC=C(C=C2)Cl)N)C3=NC=NC4=C3C=CN4 [Capivasertib] (first compound max 1 µM, 7x7, partner max 3 µM)
Bliss excess: 0.03
//
molecule: CCN(CCO)CCCOc1ccc2c(Nc3cc(CC(=O)Nc4cccc(F)c4)[nH]n3)ncnc2c1 [AZD2811] + O=C(c1cc(Cc2n[nH]c(=O)c3ccccc23)ccc1F)N1CCN(C(=O)C2CC2)CC1 [Olaparib] (first compound max 1 µM, 7x7, partner max 10 µM)
Bliss excess: -0.0595
//
molecule: Cc1c2c(nn1C)CSCc1cc(n(C)n1)CSc1cc(c3ccccc3c1)OCCCc1c(C(=O)O)n(C)c3c-2c(Cl)ccc13 [AZD5991] + CS(=O)(=O)CCNCc1ccc(-c2ccc3ncnc(Nc4ccc(OCc5cccc(F)c5)c(Cl)c4)c3c2)o1 [Lapatinib] (first compound max 1 µM, 7x7, partner max 10 µM)
Bliss excess: 0.0008
//
molecule: Cc1c2c(nn1C)CSCc1cc(n(C)n1)CSc1cc(c3ccccc3c1)OCCCc1c(C(=O)O)n(C)c3c-2c(Cl)ccc13 [AZD5991] + Cc1cc2ncnn2cc1Nc1ncc2c(n1)n(C1CCOCC1)c(=O)n2C [AZD7648] (first compound max 1 µM, 7x7, partner max 10 µM)
Bliss excess: -0.0314

Ask | Would you kindly share the measured Bliss excess for CN(CCO)CC[C@H](CSc1ccccc1)Nc1ccc(S(=O)(=O)NC(=O)c2ccc(N3CCC([C@@H](O)c4ccccc4-c4ccc(Cl)cc4)CC3)cc2)cc1S(=O)(=O)C(F)(F)F [AZD4320] + CCN(CCO)CCCOc1ccc2c(Nc3cc(CC(=O)Nc4cccc(F)c4)[nH]n3)ncnc2c1 [AZD2811] (first compound max 1 µM, 7x7, partner max 1 µM) ?
Reply | 0.0557

Ask | Can you look up the measured Bliss excess of CCN(CCO)CCCOc1ccc2c(Nc3cc(CC(=O)Nc4cccc(F)c4)[nH]n3)ncnc2c1 [AZD2811] + C[C@@H]1COCCN1C2=NC(=NC(=C2)C3(CC3)[S@](=N)(=O)C)C4=C5C=CNC5=NC=C4 [AZD6738] (first compound max 1 µM, 7x7, partner max 10 µM) for me?
Reply | -0.0428

Ask | Entry CC1(C)CCC(CN2CCN(c3ccc(C(=O)NS(=O)(=O)c4ccc(NCC5CCOCC5)c([N+](=O)[O-])c4)c(Oc4cnc5[nH]ccc5c4)c3)CC2)=C(c2ccc(Cl)cc2)C1 [Venetoclax] + CS(=O)(=O)CCNCc1ccc(-c2ccc3ncnc(Nc4ccc(OCc5cccc(F)c5)c(Cl)c4)c3c2)o1 [Lapatinib] (first compound max 1 µM, 7x7, partner max 10 µM) has what Bliss excess?
Reply | 0.146

Ask | Consider the molecule C[C@@H]1COCCN1c1cc(C2([S@](C)(=N)=O)CC2)nc(-c2ccnc3[nH]ccc23)n1 [AZD6738] + O=C(c1cc(Cc2n[nH]c(=O)c3ccccc23)ccc1F)N1CCN(C(=O)C2CC2)CC1 [Olaparib] (first compound max 10 µM, 7x7, partner max 10 µM) and give its measured Bliss excess.
Reply | -0.0667

Ask | Consider the molecule Cn1cnc2c(F)c(Nc3ccc(Br)cc3Cl)c(C(=O)NOCCO)cc21 [Selumetinib] + C=CCn1c(=O)c2cnc(Nc3ccc(N4CCN(C)CC4)cc3)nc2n1-c1cccc(C(C)(C)O)n1 [AZD1775] (first compound max 10 µM, partner max 1 µM) and give its measured Bliss excess.
Reply | -0.0186

Ask | Which Bliss excess value is on record for CN(CCO)CC[C@H](CSc1ccccc1)Nc1ccc(S(=O)(=O)NC(=O)c2ccc(N3CCC([C@@H](O)c4ccccc4-c4ccc(Cl)cc4)CC3)cc2)cc1S(=O)(=O)C(F)(F)F [AZD4320] + Cn1cnc2c(F)c(Nc3ccc(Br)cc3Cl)c(C(=O)NOCCO)cc21 [Selumetinib] (first compound max 1 µM, 7x7, partner max 3 µM) ?
Reply | 0.0723

Ask | Fill blank: measured Bliss excess of the molecule Cc1cc2ncnn2cc1Nc1ncc2c(n1)n(C1CCOCC1)c(=O)n2C [AZD7648] + COc1cc([C@@H]2c3cc4c(cc3[C@@H](O[C@@H]3O[C@@H]5CO[C@@H](C)O[C@H]5[C@H](O)[C@H]3O)[C@H]3COC(=O)[C@H]23)OCO4)cc(OC)c1O [Etoposide] (first compound max 10 µM, 7x7, partner max 10 µM) is ____.
Reply | 0.125

Ask | Which Bliss excess value belongs to CC1(C)CCC(CN2CCN(c3ccc(C(=O)NS(=O)(=O)c4ccc(NCC5CCOCC5)c([N+](=O)[O-])c4)c(Oc4cnc5[nH]ccc5c4)c3)CC2)=C(c2ccc(Cl)cc2)C1 [Venetoclax] + Cn1cnc2c(F)c(Nc3ccc(Br)cc3Cl)c(C(=O)NOCCO)cc21 [Selumetinib] (first compound max 1 µM, 7x7, partner max 3 µM) ?
Reply | 0.0747

Every entry's value here was drawn from the supplement of paper PMC11061612.
